measured-on: cytochrome c′ (AXCP) (Achromobacter xylosoxidans, UniProt P00138, L16G)
measurement-notes: UV-vis titration
measurement-name: Kd (µM)
All answers are understood in µM, so give the number only.

Q. Could you tell me which Kd is on file for O=NO [nitrite] ?
A. 500
